Hey, just so you know, these numbers are from patent US20110059504A1.

- tgt: T1, human myostatin (human, UniProt O14793 267-375, biotinylated in selections and radioactive assays (site not stated))
- T1 construct: Phage ELISA used both unbiotinylated and biotinylated myostatin; also called biotinylated human myostatin; myostatin-biotin
- T1 sequence (looked up): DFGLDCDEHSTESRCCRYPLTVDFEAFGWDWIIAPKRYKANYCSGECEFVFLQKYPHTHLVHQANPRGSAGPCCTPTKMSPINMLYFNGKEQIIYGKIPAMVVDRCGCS
- protocol: radioactive equilibrium binding assay
# binning rule on B max: class 0 (below 40%), class 1 (40% to below 70%), class 2 (70% or more)

binder	label_class
39633-D3 (V39M) (designed binder, group M2-A50; V39M) MTIPEIIIKVRGTQVVGSDMTVIVEFSNPFKETLRNVWMHLDGPGVTRPMKKMFSEIRPNSTVQWEEVVRPWVSGHRKLIASMPSLLHLHVYGELDVQIQRRDYKDDDDK	class 1
39885-A1 (designed binder, group M1-A; also called M1-1 (clone ID)) MTIPEIIIKVRGTQVVGSDMTVIVEFTNPLKETLRNVWVHLDGPGVTRPMKKMFPAIPMNHKVQWEEVVRPWVSGHRKLIASMPQLFHIHVYGELDVQIQRRDYKDDDDK	class 1
45927-E5 (designed binder, group M3-Aext) MTIPEIIIKVRGTQVVGSDMTVIVEFTNPSNYRPCILRNVWVHLDGPGVTRPMKKMFKMIVYHSTVQWEEVVRPWVSGHRKLIASMSKFELSGTSSRGRVYGELDVQIQRRDYKDDDDK	class 0
39908-A7 (designed binder, group M3-A50; ΔS82, M83R; also called M24 (clone ID)) MTIPEIIIKVRGTQVVGSDMTVIVEFSNPFKETLRNVWVHLDGPGVTRPMKKMFCEIRPNSIVQWEEVVRPWVSGHRKLIARMTLRPWHVYGELDVQIQRRDYKDDDDK	class 2
45927-A10 (designed binder, group M3-Aext; H76R (wild type scaffold numbering)) MTIPEIIIKVRGTQVVGSDMTVIVEFTNPKRDTSVWLRNVWVHLDGPGVTRPMKKMFFTIGYPSTVQWEEVVRPWVSGRRKLIASMSPSILSKGNIGLGVYGELDVQIQRRDYKDDDDK	class 0
39908-E5 (designed binder, group M3-A50; ΔS82, M83R; also called M56 (clone ID)) MTIPEIIIKVRGTQVVGSDMTVIVEFSNPFKETLRNVWVHLDGPGVTRPMKKMFSEIRPNSTVQWEEVVRPWVSGHRKLIARCSLSPWHVYGELDVQIQRRDYKDDDDK	class 2
39885-F8 (designed binder, group M1-A; also called M7-L (clone ID)) MTIPEIIIKVRGTQVVGSDMTVIVEFTNPLKETLRNVWVHLDGPGVTRPMKKMFPAIPMNHKVQWEEVVRPWVSGHRKLIASMPQLFHLHVYGELDVQIQRRDYKDDDDK	class 2
39633-D5 (designed binder, group M4-A50; also called 39633-D5/yes) MTIPEIIIKVRGTQVVGSDMTVIVEFTNPFKETLRSVWVHLDGPGVTRPMKKMFREIPPKTTVQWEEVVRPWVSGHRKLIASMCEPSLDHVYGELDVQIQRRDYKDDDDK	class 0
39633-F4 (designed binder, group M1-A50; V91L) MTIPEIIIKVRGTQVVGSDMTVIVEFSNPFKETLRNVWVHLDGPGVTRPMKKMFCEIRPNSIVQWEEVVRPWVSGHRKLIASMRTQYLIHLYGELDVQIQRRDYKDDDDK	class 0
39633-G1 (designed binder, group M1-A50; V91L) MTIPEIIIKVRGTQVVGSDMTVIVEFSNPFKETLRNVWVHLDGPGVTRPMKKMFREIPPKTTVQWEEVVRPWVSGHRKLIASMRTQYLIHLYGELDVQIQRRDYKDDDDK	class 1
39885-G5 (designed binder, group M1-A; also called M8-L (clone ID)) MTIPEIIIKVRGTQVVGSDMTVIVEFTNPLKETLRNVWVHLDGPGVTRPMKKMFPAIPYLSYVQWEEVVRPWVSGHRKLIASMPQLHHLHVYGELDVQIQRRDYKDDDDK	class 1
39973-D2 (designed binder, group M3-A) MTIPEIIIKVRGTQVVGSDMTVIVEFYFSPGARLATVWVHLDGPGVTRPMKKMFHSIYVPFWVQWEEVVRPWVSGHRKLIASMTTTVQGHVYGELDVQIQRRDYKDDDDK	class 0
45927-B7 (M50T) (designed binder, group M1-Aext; M50T) MTIPEIIIKVRGTQVVGSDMTVIVEFTNPLKETLRNVWVHLDGPGVTRPTKKMFLKIPGCSTVQWEEVVRPWVSGHRKLIASMSMLGLPFSLRFIPVYGELDVQIQRRDYKDDDDK	class 1
39908-H10 (designed binder, group M2-A50; also called M4 (clone ID)) MTIPEIIIKVRGTQVVGSDMTVIVEFTNPFKETLRSVWVHLDGPGVTRPMKKMFREIPPKTTVQWEEVVRPWVSGHRKLIASMPSLLHLHVYGELDVQIQRRDYKDDDDK	class 1
